Tested on: Yap1 mRNA
method: Antisense inhibition of human Yap1 in A-431 cells by cEt gapmers, single dose (Example 3, RTS36584)
Type: cell-based
protocol_conditions: Table 28; Yap1 mRNA as percent of untreated control; 3-10-3 cEt gapmers targeting SEQ ID NO.: 1, and 2
Strand notation (5' to 3'): a small letter for the sugar, then the base; units joined by * are phosphorothioate-linked, units joined directly phosphodiester-linked; [ ] holds rarer units or linkages, { } end groups; capitals alone tell only the bases. k = constrained ethyl (cEt); [5mC] = 5-methylcytosine; d = 2'-deoxy (DNA)
measured_property: YAP1 (% UTC)

> print(dat)
                                  substance  measured.property  test.result
1  1076430 (k[5mC]*kG*kT*dT*dA*dT*dA*dA*dG*dA*dT*dG*dT*kG*k[5mC]*kT; antisense) [compound 1076430]       YAP1 (% UTC)            4
2  1074734 (kT*kG*k[5mC]*d[5mC]*dA*dG*dG*dT*dA*dT*d[5mC]*dA*d[5mC]*kA*kG*kT; antisense) [compound 1074734]       YAP1 (% UTC)           51
3  1076526 (kG*kT*kA*dG*dA*dA*dA*dG*dA*dT*dG*dG*d[5mC]*kT*k[5mC]*kA; antisense) [compound 1076526]       YAP1 (% UTC)            3
